Molecular target: Lethal factor (Bacillus anthracis) (UniProt P15917)
Sequence (P15917 whole entry, looked up): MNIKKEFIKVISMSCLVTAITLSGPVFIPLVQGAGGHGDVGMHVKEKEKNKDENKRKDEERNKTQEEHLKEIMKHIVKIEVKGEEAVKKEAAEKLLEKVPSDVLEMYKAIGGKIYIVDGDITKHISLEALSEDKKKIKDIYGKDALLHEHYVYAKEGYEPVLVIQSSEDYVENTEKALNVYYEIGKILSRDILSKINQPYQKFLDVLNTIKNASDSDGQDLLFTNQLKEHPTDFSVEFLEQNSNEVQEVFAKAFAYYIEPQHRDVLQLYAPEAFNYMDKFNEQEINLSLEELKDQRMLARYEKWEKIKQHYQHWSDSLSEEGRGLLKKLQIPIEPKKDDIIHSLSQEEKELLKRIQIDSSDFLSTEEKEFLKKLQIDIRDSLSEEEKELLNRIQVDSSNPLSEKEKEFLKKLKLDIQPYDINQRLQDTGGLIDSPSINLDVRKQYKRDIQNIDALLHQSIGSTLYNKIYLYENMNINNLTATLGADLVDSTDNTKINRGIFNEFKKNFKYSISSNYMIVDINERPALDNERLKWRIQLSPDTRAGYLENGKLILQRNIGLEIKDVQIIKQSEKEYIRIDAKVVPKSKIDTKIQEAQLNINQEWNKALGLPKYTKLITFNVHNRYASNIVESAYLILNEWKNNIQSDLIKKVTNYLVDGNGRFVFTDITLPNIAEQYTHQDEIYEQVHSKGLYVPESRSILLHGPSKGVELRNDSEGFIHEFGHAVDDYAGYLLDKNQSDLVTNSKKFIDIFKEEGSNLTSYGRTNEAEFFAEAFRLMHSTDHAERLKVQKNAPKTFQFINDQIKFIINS
Assay: anthrax lethal factor cleavage blockers – biochemical, multiplex microsphere, MLPCN library, primary screen (AID 588501); also: plate controls were buffer without enzyme for full effect and enzyme alone for no effect
Conditions: multiplex microsphere protease cleavage assay, LF; at 10 µM; active compounds read high
The campaign covered roughly 360,000 compounds. About 420 (0.12%) were called active. For the sample, actives were picked, then their nearest neighbours and some compounds at random.
Measurement kind: inhibition

Briefly, inhibition measured for Cc1ccc2c(c1)C(O)(CC(=O)c1cccnc1)C(=O)N2 (centres undefined) : -1.9% (inactive)

Briefly, inhibition measured for `CCn1c(CNC(=O)c2cc(OC)c(OC)c(OC)c2)cc2cc(C)ccc21` : -7.8% (inactive)

Briefly, inhibition measured for `CCOC(=O)[C@H]1[C@H]2COc3ccc(C)cc3[C@@H]2N2C(=O)CN(Cc3ccc(F)cc3)C(=O)[C@@]12C` : -3.6% (inactive)

Briefly, inhibition measured for CC1(c2ccc(Cl)cc2)NC(=O)N(CC(=O)c2ccc3c(c2)OCO3)C1=O (centres undefined) : -2.8% (inactive)

Data origin: PubChem BioAssay AID588501
